Taken from ChEMBL document CHEMBL1201862.

- Tested on: SW-620
- ASSAY_NOTES: NCI tumour cell line growth inhibition, 48 h
Active and inactive are the calls of the source. No stated cut-off is given here; in the data, active = GI50 up to about 1.1 µM and inactive = higher.
REPORTED_METRIC: GI50

// fetch GI50 given entry COC(=O)CSC(=S)Nc1nnc(NC(=S)SCOC(C)=O)n1C(=S)SCC(=O)OC
> 100 µM (inactive)

Provide one value: measured GI50 of Oc1ccc(-c2nn3c(CCCCCCCCc4nnc5sc(-c6ccc(O)cc6)nn45)nnc3s2)cc1
> 100 µM (inactive)

Give the measured GI50 for O=C1c2ccccc2C(=O)N1CCCSc1ccccc1
> 100 µM (inactive)

Identify GI50 associated with the compound NC(CCC(=O)O)(CCC(=O)O)CCC(=O)O
> 100 µM (inactive)

Quote GI50 reported for CN(C)c1ccc(/C(F)=C(F)/C(F)=C(F)/C(F)=C(\F)c2ccc(Br)cc2)cc1 please.
22.1 µM (inactive)

State its GI50 for this compound: COC(=O)C1=C(C(=O)OC)C2C=CC1C1C(Cl)=C(Cl)C21 (configuration not stated)
> 100 µM (inactive)

Output measured GI50 for this item: COc1ccc2cc(C(=O)NCCc3ccccc3)ccc2c1OC
> 100 µM (inactive)

Annotate the compound O=S(=O)(c1ccccc1)n1c2cc3cccnc3nc2c2cccnc21 with its measured GI50.
44.7 µM (inactive)

Determine from records and report GI50 for Cc1ccc(Nc2nc(C)c(C(/C=C/c3ccc4c(c3)OCO4)=N/Nc3ccc([N+](=O)[O-])cc3[N+](=O)[O-])s2)c([N+](=O)[O-])c1
45 µM (inactive)

Look up GI50 of COc1ccc(C(=O)OC2C=COC(C)C2OC(=O)c2ccc(OC)cc2)cc1 (configuration not stated) and report it.
15.6 µM (inactive)

Given C=CCn1c(-c2ccc([N+](=O)[O-])cc2)csc1=N , respond with its GI50.
70 µM (inactive)

Output GI50 of COc1cc(C2c3cc4c(cc3C(O)C3CCC(=O)N23)OCO4)cc(OC)c1OC (configuration not stated)
36.6 µM (inactive)

Fill in GI50 for record Nc1ncnc2c1ncn2Cc1cccc(CCl)c1
12.4 µM (inactive)

Return GI50 for the following compound: CN(C)CC1(C)CC/C(=C\c2ccc3c(c2)OCO3)C1=O (configuration not stated)
92.9 µM (inactive)

Name the recorded GI50 of the item CCOC(=O)Nc1cc(NC(/C=N/NC(C)=O)C(=O)OCC)c(OC)cc1NC(C)=O (configuration not stated) in your answer.
> 100 µM (inactive)

Look up GI50 of CCOC(=O)CCC(NC(=O)Cc1ccc(Nc2nc3ccccc3nc2-c2cccs2)cc1)C(=O)OCC (configuration not stated) and report it.
> 100 µM (inactive)

Supply recorded GI50 for CCN(CC)/C(Cl)=C(Cl)\C(=C1\Nc2ccc(OC)cc21)[N+](=O)[O-] here.
43 µM (inactive)

Entry CC(=O)OC1COC(n2c(=S)n(-c3ccc(C)cc3)c(=O)c3ccccc32)C(OC(C)=O)C1OC(C)=O (configuration not stated) needs its GI50 filled in; supply it.
> 100 µM (inactive)

State its GI50 for this compound: N#CC(/C(CCCC(=O)Nc1cccc([N+](=O)[O-])c1)=N\NC(=O)c1c(O)ccc2ccccc12)c1nc2ccccc2s1 (configuration not stated)
44.8 µM (inactive)

Consider the compound COC1(OC)c2ccccc2C2(O)c3ccccc3C(=O)C12 (configuration not stated) and give its recorded GI50.
71 µM (inactive)

Identify measured GI50 associated with CCC(=O)OC[n+]1ccc2c(C)c3[nH]c4ccc(OC)cc4c3c(C)c2c1
0.0288 µM (active)

Tell us which GI50 value is on record for CCCn1cnc2c(SCc3ccc(Cl)cc3)nc(N)nc21
36.3 µM (inactive)

Output measured GI50 for this item: c1ccc2c(NCCCCCCNc3c4ccccc4nc4ccccc34)c3ccccc3nc2c1
0.0458 µM (active)

Find the measured GI50 of Cc1cc(Nc2ccc(/N=N/c3ccc(O)c4ncccc34)cc2)nc(C)n1 and report it.
13.5 µM (inactive)

Using known records, supply GI50 for NC(Cc1c[nH]c2ccccc12)P(=O)(O)O (configuration not stated)
> 100 µM (inactive)

State its GI50: CCN(CC)/C(SCc1ccccc1)=C(\C(Cl)=C(Cl)Cl)[N+](=O)[O-]
21.8 µM (inactive)

Determine its reported GI50: CC(C)(C)OC(=O)N1Cc2cc(O)ccc2C[C@H]1C(=O)O
> 100 µM (inactive)

Output measured GI50 for this item: C/C=C(\C)C(O)C(C)C(O)C/C=C(C)/C=C(\C)C/C(C)=C/C/C=C(\C)C(O)C(C)c1ccc(CCC)c(=O)o1 (configuration not stated)
12.3 µM (inactive)

Consider the compound Clc1ccc2c(c1)-c1c3c(nn1-c1ccccc1)-c1ccccc1SC3O2 (configuration not stated) . State its measured GI50.
> 100 µM (inactive)

For the compound COC(=O)/C=C1/OC(c2ccc(C)cc2C)=CC1=O , give its measured GI50 value.
2.82 µM (inactive)

Please look at this compound and report its GI50: Cc1cc(N(CCC#N)S(=O)(=O)c2ccccc2)ccc1C=O
> 100 µM (inactive)

Give a short answer stating reported GI50 for Cc1ccc(C(=O)Nc2ccccc2)cc1/N=N/N(C)C .
> 100 µM (inactive)

// fetch GI50 given entry CC(=O)NNc1nc(C)c(C(=O)NNC(=O)C(=O)Nc2ccc(Cl)c([N+](=O)[O-])c2)s1
32.2 µM (inactive)

Please give measured GI50 of the following entry: CC(C)(C)OC(=O)NCC(=O)N1CCN(C(=O)CNC(=O)OC(C)(C)C)CC1
> 100 µM (inactive)

Query GI50 for S=C=NCc1ccccc1 [BENZYL ISOTHIOCYANATE]
2.35 µM (inactive)

Read the entry NC(=O)c1ccc(NCC2=CC(=O)C=CC2=O)cc1 and write its reported GI50.
21.4 µM (inactive)

Using known records, supply GI50 for CC(=O)Nc1ccc(-c2nnc(SCC(=O)Nc3ccccc3[N+](=O)[O-])o2)cc1
> 100 µM (inactive)

Let me know recorded GI50 for Nc1nc(N)c(-c2ccccc2)c(C(=O)Nc2nccs2)n1 , thanks.
> 100 µM (inactive)

Note GI50 for the compound shown: O=C/C=C/c1ccco1
> 100 µM (inactive)

Return GI50 for the following compound: CCC/C=C/C=C/C1CC(O)C(O)C(=O)C1CO (configuration not stated)
> 100 µM (inactive)

Quote GI50 reported for C=C(C)C(O)C(O)c1c(OC)ccc2ccc(=O)oc12 (configuration not stated) please.
> 100 µM (inactive)

Find the measured GI50 of CN(C)CCN1C(=O)c2cccc3cc(N)cc(c23)C1=O [AMONAFIDE] and report it.
1.65 µM (inactive)

###

- Test system: M14
- ASSAY_NOTES: NCI tumour cell line growth inhibition, 48 h
Calls of active or inactive are those of the source. No stated cut-off is given here; in the data, active = GI50 up to about 1.1 µM and inactive = higher. Peptide text beside a SMILES is read from it. * marks the point of attachment. Boc = CC(C)(C)OC(=O)*
REPORTED_METRIC: GI50

Supply recorded GI50 for CCN(CC)/C(SCc1ccccc1)=C(\C(Cl)=C(Cl)Cl)[N+](=O)[O-] here.
15.9 µM (inactive)

Give the measured GI50 for CC1ON2CCCC2[C@H]1C(=O)N1C2CC3CCC2(CS1(=O)=O)C3(C)C (stereo partly drawn)
> 100 µM (inactive)

Input Nc1cc(N)c(/N=N/c2cccc3c(S(=O)(=O)O)cccc23)cc1/N=N/c1cc([N+](=O)[O-])ccc1O , output reported GI50.
26.1 µM (inactive)

Report measured GI50; entry is C#CCN(Cc1ccc2[nH]c(N)nc(=O)c2c1)c1ccc(C(=O)NC(CCC(=O)O)C(=O)O)cc1 (stereo not drawn)
51.3 µM (inactive)

Read the entry COC(=O)C(Cc1c[nH]c2ccccc12)NC(=O)C(Cc1c[nH]c2ccccc12)NC(=O)C(Cc1c[nH]c2ccccc12)NC(=O)C(Cc1c[nH]c2ccccc12)NC(=O)C(Cc1c[nH]c2ccccc12)NC(=O)OC(C)(C)C (stereo not drawn) (Boc-WWWWW-OMe; configuration not given here) and write its reported GI50.
33.3 µM (inactive)

Note down GI50 recorded for CN(Cc1cc(Cl)cc(Cl)c1O)Cc1c(O)ccc2ccccc12
20.2 µM (inactive)

Fill in reported GI50 for this entry: COc1cc(C2OC(N)=C(C#N)C3=C2C(C)CCC3)cc(OC)c1OC (stereo not drawn)
> 100 µM (inactive)

Return GI50 for the following molecule: CCOC(=O)c1cc2nc3ccccc3c(=O)n2c2ccccc12
> 10 µM (inactive)

###

- Test system: IGROV-1
- ASSAY_NOTES: NCI tumour cell line growth inhibition, 48 h
Activity calls are given as the source filed them. Cut-off read from the data, not from the text of the source: active = GI50 up to about 1.1 µM and inactive = higher.
REPORTED_METRIC: GI50

Supply reported GI50 belonging to this compound: CC1OC(n2ccc3ccc([N+](=O)[O-])cc32)C(O)C(O)C1O (stereo not given)
> 100 µM (inactive)

Answer with the recorded GI50 for the compound listed here: O=C(c1cccnc1)N1N=C(c2ccc3c(c2)OCO3)CC1(O)c1cc(F)c(Cl)cc1Cl (stereo not given)
11.4 µM (inactive)

Give me measured GI50, please, for this compound: CC(=O)OC1COC(n2c(=S)n(-c3ccc(C)cc3)c(=O)c3ccccc32)C(OC(C)=O)C1OC(C)=O (stereo not given)
> 100 µM (inactive)

Recall and state the measured GI50 for CC(=O)NNc1nc(C)c(C(/C=C/c2ccc(Cl)cc2)=N/NC(=O)C[N+](C)(C)C)s1 .
> 100 µM (inactive)

Fill in GI50 for record CC1C=CC(C)C2(O)C(=O)NC(O)C12 (stereo not given)
> 100 µM (inactive)
